Exercise: for every item that follows, state its recorded Kd.
target: T1, recombinant c-Met extracellular domain (human, UniProt P08581 16-932); assay: SPR kinetic analysis as in Example 2
T1 construct: Construct used for SPR is not described further (may be the Fc chimera, as the protocol captures on anti-human Fc)
The answer is to be given in nM; state only the numeric part.

# Kd (binder: P114AR7P92-F3 (designed binder, not shown: small tags and cut ends) LPAPKNLVVSRVTEDSARLSWTAPDAAFDSFWIRYFEFLGSGEAIVLTVPGSERSYDLTGLKPGTEYIVNIMGVKGGSISHPLSAIFTT ) is 0.4

Entry under test: P114AR7P94-E5 (designed binder, not shown: small tags and cut ends) LPAPKNLVVSRVTEDSARLSWTAPDAAFDSFWIRYFEFLGSGEAIVLTVPGSERSYDLTGLKPGTEYAVNIMGVKGGRVSVPLSAIFTT . Its Kd was 4.2

Form: binder = P114AR7P92-H5 (designed binder, not shown: small tags and cut ends) LPAPKNLVVSRVTEDSARLSWTAPDAAFDSFWIRYLEFLLGGEAIVLTVPGSERSYDLTGLKPGTEYVVQIMGVKGGTVSPPLSAIFTT ; Kd = 11.6
